Biological target: T1, biotinylated recombinant human IL-12Rβ2 (produced in-house) (human, UniProt Q99665 24-622, random biotinylated)
T1 construct: also called hIL-12RB2; hIL12RB2
T1 sequence: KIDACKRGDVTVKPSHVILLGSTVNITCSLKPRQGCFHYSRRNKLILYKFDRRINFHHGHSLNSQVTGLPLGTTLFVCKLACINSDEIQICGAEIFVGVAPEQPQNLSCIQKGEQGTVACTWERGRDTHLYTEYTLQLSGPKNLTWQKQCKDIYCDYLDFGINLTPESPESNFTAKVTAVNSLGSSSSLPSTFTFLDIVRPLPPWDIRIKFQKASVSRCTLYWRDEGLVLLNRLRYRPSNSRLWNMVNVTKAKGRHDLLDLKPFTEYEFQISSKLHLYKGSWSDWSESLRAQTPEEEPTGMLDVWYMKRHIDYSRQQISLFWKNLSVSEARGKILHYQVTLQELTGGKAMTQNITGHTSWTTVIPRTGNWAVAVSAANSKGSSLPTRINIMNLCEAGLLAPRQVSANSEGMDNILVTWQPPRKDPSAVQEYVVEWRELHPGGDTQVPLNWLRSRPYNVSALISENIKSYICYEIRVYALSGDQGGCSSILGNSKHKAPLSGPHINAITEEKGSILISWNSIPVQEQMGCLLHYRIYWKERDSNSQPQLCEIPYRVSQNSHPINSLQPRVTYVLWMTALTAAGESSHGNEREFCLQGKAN
Assay: ELISA, P.E. VHH on biotinylated hIL-12RB2, signal ratio to control well
result type: ELISA hIL12RB2/control

Below, 3 binders whose answers are already recorded.
anti-IL-12Rβ2 VHH clone 3CAHS124 (VHH, not shown: small tags and cut ends, tested as periplasmic extract) VHH: QVQLQESGGGLVQPGGSLRLSCAASGRTINAYIMGWFRQAPGKEREFVAAVSGSGGSTYYADSVKGRFTISRDNAKNTVNLQMDNLRSEDTDVYYCAATYESVYLQNPGQYDYWGQGTQVTVSS | 5.67
anti-IL-12Rβ2 VHH clone 3CRH5 (VHH, not shown: small tags and cut ends, tested as periplasmic extract; also called 3CRHS) VHH: QVQLQESGGGLVQAGGSLVLSCAASGSAALIFLMSWYRQAPGKQRELVAEVSRGGSTTYADSVEGRFTISRDNAKNIVDLQMNSLKPEDTAVYYCKADQNYGDSLRSSWGQGTQVTVSS | 8.64
anti-IL-12Rβ2 VHH clone 3CRHS106 (VHH, not shown: small tags and cut ends, tested as periplasmic extract) VHH: QVQLQESGGGLVQPGGSLRLSCKASGFTFSTYAMSWVRQAPGKGLEWVSAVNSGGLSTDYADSVEGRFTISRDDAKNMLFLQMNSLKPEDTARYYCAKYEDCSDYMCHRDRAGYWGQGTQVTVSS | 10.2

Could you tell me which ELISA hIL12RB2/control is on file for anti-IL-12Rβ2 VHH clone 3CAHS142 (VHH, not shown: small tags and cut ends, tested as periplasmic extract) VHH: QVQLQESGGGLVQAGESLTLSCIASGVIKDYAMGWFRQAPGKEREFVAAISWSGVSIYYADSVKGRFTISRDNAKNTVYLQMNSLEPEDTAVYYCAGTEGAYTVAGGSTFGYDMDYWGKGTQVTVSS ?
4.98

Could you tell me which ELISA hIL12RB2/control is on file for anti-IL-12Rβ2 VHH clone 3CAHS102 (VHH, not shown: small tags and cut ends, tested as periplasmic extract) VHH: QVQLQESGGGLVQPGGSLRLSCAASGSILRINLMGWYRQVPGKQRELVAEMSTGGSTTYVDSVEGRFTISRDNAKNTVYLQMNSLKPEDTAVYYCNAKAWQLGRLENDDWGQGTQVTVSS ?
3.54

Could you tell me which ELISA hIL12RB2/control is on file for anti-IL-12Rβ2 VHH clone 3CAHS171 (VHH, not shown: small tags and cut ends, tested as periplasmic extract; also called 3CANS171) VHH: QVQLQESGGGLVQPGGSLRLTCVASGFPFSTHAMSWVRQPPGKGREWISAINSGGDSTDYADSVMGRFTISRDNAKNTVYLQMNSLKSEDTAAYYCAKYEDCSDYDCSSRASWGQGTQVTVSS ?
3.27

Could you tell me which ELISA hIL12RB2/control is on file for anti-IL-12Rβ2 VHH clone 3CRHM99 (VHH, not shown: small tags and cut ends, tested as periplasmic extract; also called 21062) VHH: QVQLQESGGGLVQPGGSLRLSCAASGISSSRLHVGWFRQSPGKEREFVAAISLSGGTQAYTDSVKGRFTISGDNVKNTAYLQMNSLRPEDTAVYYCAARERFIWTWSDLTYDYWGQGTQVTVSS ?
4.24

Could you tell me which ELISA hIL12RB2/control is on file for anti-IL-12Rβ2 VHH clone 3CRH25 (VHH, not shown: small tags and cut ends, tested as periplasmic extract) VHH: QVQLQESGGGLVQAGDSLRLSCTASGHTFSRYTTIGWFRQAPGKDREFVAAIRWSGDITDYADAVKGRFTISRDNVKNTVYLQMNSLNPEDTAVYYCARGYSEYGVLSRNRGLYAYWGQGTQVTVSS ?
5.16
